ASSAYED_SYSTEM: Full-length glucokinase (beta cell isoform) (Homo sapiens, UniProt P35557)
Construct: Full-length glucokinase (beta cell isoform) was His-tagged at N-terminus; His tag (N); made in house
Sequence (P35557 1-465): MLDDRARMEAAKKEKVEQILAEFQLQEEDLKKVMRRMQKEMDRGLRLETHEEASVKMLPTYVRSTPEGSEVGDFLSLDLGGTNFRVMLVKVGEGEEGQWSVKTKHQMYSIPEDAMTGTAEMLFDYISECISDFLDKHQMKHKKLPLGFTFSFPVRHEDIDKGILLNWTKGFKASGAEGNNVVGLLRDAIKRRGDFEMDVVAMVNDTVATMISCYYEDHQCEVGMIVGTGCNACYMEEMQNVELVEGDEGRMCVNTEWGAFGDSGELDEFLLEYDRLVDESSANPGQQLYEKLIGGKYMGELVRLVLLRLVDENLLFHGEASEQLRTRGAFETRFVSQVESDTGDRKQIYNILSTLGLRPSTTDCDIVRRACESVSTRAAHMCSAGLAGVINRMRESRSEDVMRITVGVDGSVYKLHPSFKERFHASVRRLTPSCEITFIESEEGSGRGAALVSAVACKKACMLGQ
ASSAY: Glucokinase biochemical assay (PK/LDH-coupled, NADH depletion at 340 nm): % activation, EC50, % max activation
MEASUREMENT_SETUP: 5 mM glucose; GK activation; read-out: EC50
Item-by-item account of EC50

# SMILES_STRING, MEASURE_UNIT, RELATION_SIGN, EC50
rows = [
    ("Cc1nc2cc(C(=O)Nc3ccn(C)n3)cc(Oc3ccc(S(C)(=O)=O)cc3)c2o1", "µM", ">", 10),
    ("CC1(C)Cc2c(OCc3ccccc3)cc(C(=O)Nc3ccc(C(=O)O)cn3)cc2O1", "µM", "=", 0.15),
    ("COc1ccnc(NC(=O)c2cc(Oc3ccc(S(C)(=O)=O)cc3)c3cc(C)oc3c2)c1", "µM", "=", 1),
    ("Cn1ccc(NC(=O)c2cc(Oc3ccc(S(C)(=O)=O)cc3)c3cc(CO)oc3c2)n1", "µM", "=", 1.7),
]
